B1: EPB41L3 (parent)
chain: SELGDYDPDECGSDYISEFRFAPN

- Variants of: B1
- method-description: protein stability index of a GFP-peptide fusion (GPS, HEK-293T) (PSI 1-6); higher = more stable;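 note: lentivirally expressed fusions sorted by FACS into six bins by GFP to DsRed ratio, PSI derived from sequencing read proportions per bin multiplied by bin number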
- condition: c terminus: a fixed tail appended
Please use 1 whenever protein stability index is not below 2, and 0 whenever it is.

>>> class_assignment("E10D")
0
>>> class_assignment("P8A")
1
>>> class_assignment("G12E")
1
>>> class_assignment("D9V")
0
>>> class_assignment("C11W")
0

// next entry
Req: Is it the case that R20F has protein stability index reaching or exceeding 2?
Resp: 1
